target: Acyl-CoA desaturase 1 (Mus musculus); assay: Inhibition of SCD1 in ICR mouse liver microsome using [9,10 3H]- stearoyl-Coenzyme A substrate assessed as decreased production of tritiated water after 20 min by scintillation counting analysis
Sequence (P13516 whole entry): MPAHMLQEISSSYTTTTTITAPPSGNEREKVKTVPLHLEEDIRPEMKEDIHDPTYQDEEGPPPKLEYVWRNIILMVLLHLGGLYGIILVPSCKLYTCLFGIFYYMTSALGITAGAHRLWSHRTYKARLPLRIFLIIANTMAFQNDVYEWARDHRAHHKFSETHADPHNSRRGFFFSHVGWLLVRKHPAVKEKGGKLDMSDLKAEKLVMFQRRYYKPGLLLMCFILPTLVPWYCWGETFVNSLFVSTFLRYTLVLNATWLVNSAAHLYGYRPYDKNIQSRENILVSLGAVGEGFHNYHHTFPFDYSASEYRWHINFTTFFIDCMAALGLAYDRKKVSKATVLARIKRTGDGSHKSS
pIC50: −log10 of the molar value.
Assign class by pIC50: not lower than 6 means yes; lower than 6 means no.

>  <compound>
O=C(NCCC1CC1)c1ccc(N2CCN(C(=O)c3cc(F)ccc3Cl)CC2)nn1

>  <target>
Acyl-CoA desaturase 1 (Mus musculus)

>  <discrete.label>
yes

$$$$
>  <compound>
N#Cc1ccccc1C(=O)N1CCN(c2ccc(C(=O)NCCC3CC3)nn2)CC1

>  <target>
Acyl-CoA desaturase 1 (Mus musculus)

>  <discrete.label>
no

$$$$
>  <compound>
O=C(NCCC1CC1)c1ccc(N2CCN(C(=O)c3ccc(F)cc3C(F)(F)F)CC2)nn1

>  <target>
Acyl-CoA desaturase 1 (Mus musculus)

>  <discrete.label>
yes

$$$$

query: Confirm if pIC50 reported for the compound O=C(NCCC1CC1)c1ccc(N2CCN(C(=O)C3CC3C(F)(F)F)CC2)nn1 (centres undefined) is 6 or above.
result: no

query: Entry O=C(NCc1ccc(C(F)(F)F)o1)c1ccc(N2CCN(C(=O)c3ccccc3C(F)(F)F)CC2)nn1 please
result: yes

query: Proceed to COc1ccc(Br)c(C(=O)N2CCN(c3ccc(C(=O)NCCCc4ccccc4)cn3)CC2)c1
result: no

query: Subsequent entry: O=C(NCCC1CC1)c1ccc(N2CCN(C(=O)/C=C\C(F)(F)F)CC2)nn1
result: no

----------
assay: Tmax in Lewis rat at 2 mg/kg, po; format: ADME, organism-based; parameters: dose 2 mg/kg, route oral; conditions: in vivo
measurement.label: Tmax (min)
Kindly answer with a numeric value in min, unit omitted.

query: Fill in: Tmax of O=C(Nc1nc2ccccc2[nH]1)c1ccc(N2CCN(C(=O)c3ccccc3C(F)(F)F)CC2)nn1 is ___
result: 30

----------
target: UniProt P13516; assay: Inhibition of SCD1 in ICR mouse liver microsome using [9,10 3H]- stearoyl-Coenzyme A substrate assessed as decreased production of tritiated water after 20 min by scintillation counting analysis
Cut-off 500 nM on IC50: below means criterion met, at or above means criterion not met.

Example entries begin here.
>  <compound>
CC(C)CCNC(=O)c1cnc(N2CCN(C(=O)c3ccccc3C(F)(F)F)CC2)nc1

>  <discrete.label>
criterion not met

$$$$
>  <compound>
O=C(NCc1ccn[nH]1)c1ccc(N2CCN(C(=O)c3ccccc3C(F)(F)F)CC2)nn1

>  <discrete.label>
criterion not met

$$$$
>  <compound>
O=C(NCCC1CC1)c1ccc(N2CCN(C(=O)c3cc(Cl)ccc3C(F)(F)F)CC2)nn1

>  <discrete.label>
criterion met

$$$$
>  <compound>
CC1CCCCC1C(=O)N1CCN(c2ccc(C(=O)NCCC3CC3)nn2)CC1 (centres undefined)

>  <discrete.label>
criterion not met

$$$$
>  <compound>
Cc1cc(C(=O)N2CCN(c3ccc(C(=O)NCCC4CC4)nn3)CC2)c(C(F)(F)F)o1

>  <discrete.label>
criterion met

$$$$

query: Bench note: check whether Cc1ccc(C)c(C(=O)N2CCN(c3ccc(C(=O)NCCC4CC4)nn3)CC2)c1 shows IC50 below 500 nM
result: criterion not met

query: Follow-up item: CCCCCNC(=O)c1ccc(N2CCN(C(=O)c3ccccc3C(F)(F)F)CC2)nn1
result: criterion met

query: Now consider CCCCCCNC(=O)c1ccc(N2CCN(C(=O)c3ccccc3C(F)(F)F)CC2)nn1 .
result: criterion met

----------
experiment: AUC (0 to infinity) in Lewis rat at 1 mg/kg, iv; type: ADME, organism-based; set-up: time infinity, dose 1 mg/kg, route intravenous; settings: plasma
measurement.label: AUC(0-inf) (µM·h)
Numbers only here, please. The scale is µM·h.

query: I am curious: what AUC(0-inf) value has been reported for O=C(Nc1nc2ccccc2[nH]1)c1ccc(N2CCN(C(=O)c3ccccc3C(F)(F)F)CC2)nn1 ?
result: 1.6

----------
experiment: Clearance in Lewis rat at 1 mg/kg, iv; type: ADME, organism-based; set-up: dose 1 mg/kg, route intravenous; settings: in vivo
Readings of clearance for the listed molecules
Remember to follow the number with its unit.

>  <structure.string>
O=C(NCCC1CC1)c1ccc(N2CCN(C(=O)c3cc(F)ccc3C(F)(F)F)CC2)nn1

>  <endpoint.result>
21.7 mL/min/kg

$$$$

Field: next molecule
query: Looking for the measured clearance of O=C(Nc1nc2ccccc2[nH]1)c1ccc(N2CCN(C(=O)c3ccccc3C(F)(F)F)CC2)nn1 , can you help?
result: 21.7 mL/min/kg

----------
assay: Half life in Lewis rat at 1 mg/kg, iv; assay type: ADME, organism-based; parameters: dose 1 mg/kg, route intravenous; conditions: in vivo
Parameter half-life: see the listing below.
Numeric only. Scale: h

>  <structure.string>
O=C(Nc1nc2ccccc2[nH]1)c1ccc(N2CCN(C(=O)c3ccccc3C(F)(F)F)CC2)nn1

>  <measurement.label>
half-life

>  <endpoint.result>
1.1

$$$$

Okay, now this molecule:
query: # query: half-life of entry O=C(NCCC1CC1)c1ccc(N2CCN(C(=O)c3cc(F)ccc3C(F)(F)F)CC2)nn1
result: 1.6

----------
assay: Apparent permeability from basolateral to apical side in human Caco2 cells; assay type: ADME, cell-based; details: Caco-2
measurement.label: Papp B→A (×10⁻⁶ cm/s)
Give just the numeric value; ×10⁻⁶ cm/s need not be written.

>  <structure.string>
O=C(NCCC1CC1)c1ccc(N2CCN(C(=O)c3ccccc3C(F)(F)F)CC2)nn1

>  <Papp B→A [×10⁻⁶ cm/s]>
22

$$$$
>  <structure.string>
O=C(NCCCCC1CC1)c1ccc(N2CCN(C(=O)c3ccccc3C(F)(F)F)CC2)nn1

>  <Papp B→A [×10⁻⁶ cm/s]>
17

$$$$
>  <structure.string>
O=C(NC[C@@H](O)c1ccccc1)c1ccc(N2CCN(C(=O)c3ccccc3C(F)(F)F)CC2)nn1

>  <Papp B→A [×10⁻⁶ cm/s]>
29

$$$$

query: Can you share its Papp B→A? I mean this molecule: O=C(NCCC1CC1)c1ccc(N2CCN(C(=O)c3ccc(F)cc3C(F)(F)F)CC2)nn1
result: 22

query: Follow-up item: O=C(NCCC1CC1)c1ccc(N2CCN(C(=O)c3cc(F)ccc3Cl)CC2)nn1
result: 29

query: Param item: O=C(NCCC1CC1)c1ccc(N2CCN(C(=O)c3cccc(F)c3C(F)(F)F)CC2)nn1
result: 26

----------
target: Acyl-CoA desaturase 1 (Mus musculus); experiment: Inhibition of SCD1 in ICR mouse liver microsome using [9,10 3H]- stearoyl-Coenzyme A substrate assessed as decreased production of tritiated water after 20 min by scintillation counting analysis
measurement.label: pIC50
Lab note: report pIC50 as minus log10 of the concentration in molar units, number only.

>  <structure.string>
CCCCCCNC(=O)c1ncc(N2CCN(C(=O)c3ccccc3C(F)(F)F)CC2)cn1

>  <endpoint.result>
5.92

$$$$

Okay, next one:
query: GET /values?readout=pIC50&item= O=C(NCCC1CC1)c1ccc(N2CCN(C(=O)c3cc(Cl)ccc3Cl)CC2)nn1
result: 7.47

----------
assay: Apparent permeability from apical to basolateral side in human Caco2 cells; format: ADME, cell-based; details: Caco-2
measurement.label: Papp A→B (×10⁻⁶ cm/s)
Enter your answer as a number in ×10⁻⁶ cm/s; do not include the unit.

Solved entries:
>  <structure.string>
O=C(NCCC1CC1)c1ccc(N2CCN(C(=O)c3ccc(F)cc3C(F)(F)F)CC2)nn1

>  <Papp A→B / ×10⁻⁶ cm/s>
22

$$$$
>  <structure.string>
O=C(NCCc1ccccc1)c1ccc(N2CCN(C(=O)c3ccccc3C(F)(F)F)CC2)nn1

>  <Papp A→B / ×10⁻⁶ cm/s>
16

$$$$
>  <structure.string>
O=C(NCCC1CC1)c1ccc(N2CCN(C(=O)c3cc(F)ccc3Cl)CC2)nn1

>  <Papp A→B / ×10⁻⁶ cm/s>
28

$$$$
>  <structure.string>
O=C(Nc1nc2ccccc2[nH]1)c1ccc(N2CCN(C(=O)c3ccccc3C(F)(F)F)CC2)nn1

>  <Papp A→B / ×10⁻⁶ cm/s>
25

$$$$
>  <structure.string>
Cc1cc(C(=O)N2CCN(c3ccc(C(=O)NCCC4CC4)nn3)CC2)c(C(F)(F)F)o1

>  <Papp A→B / ×10⁻⁶ cm/s>
21

$$$$
>  <structure.string>
O=C(NC[C@@H](O)c1ccccc1)c1ccc(N2CCN(C(=O)c3ccccc3C(F)(F)F)CC2)nn1

>  <Papp A→B / ×10⁻⁶ cm/s>
23

$$$$
>  <structure.string>
CCCCCNC(=O)c1ccc(N2CCN(C(=O)c3ccccc3C(F)(F)F)CC2)nn1

>  <Papp A→B / ×10⁻⁶ cm/s>
22

$$$$
>  <structure.string>
O=C(NCCCCC1CC1)c1ccc(N2CCN(C(=O)c3ccccc3C(F)(F)F)CC2)nn1

>  <Papp A→B / ×10⁻⁶ cm/s>
13

$$$$

Please turn your attention to the following entry.
query: I am curious: what Papp A→B value has been reported for O=C(NCc1ccc(C(F)(F)F)o1)c1ccc(N2CCN(C(=O)c3ccccc3C(F)(F)F)CC2)nn1 ?
result: 18
